Known activation at 10 µM of a selection of compounds
# target.entity: human GPR119 (Homo sapiens, UniProt Q8TDV5)
# Construct: expressed in transfected cells; host or cells: HEK293 (transient transfection, Lipofectamine 2000)
# protocol: In vitro cyclic AMP assay (Cisbio HTRF) in HEK293 cells transfected with human GPR119
# Format: cell-based
# recorded.conditions: 1 h, % Induction @ 10 μM, cAMP, Table II
endpoint: activation at 10 µM

entry.smiles	target.entity	endpoint	result
CC(C)(C)OC(=O)N1CCC(c2cc(F)c3oc(-c4ccc(S(C)(=O)=O)cc4F)nc3c2)CC1	human GPR119 (Homo sapiens, UniProt Q8TDV5)	activation at 10 µM	56.6%
CC(C)c1noc(C2CCN(c3ccc4oc(-c5ccc(S(C)(=O)=O)cc5F)nc4c3)CC2)n1	human GPR119 (Homo sapiens, UniProt Q8TDV5)	activation at 10 µM	57.6%
CC(C)OC(=O)N1CCC(c2ccc3sc(-c4ccc(S(C)(=O)=O)cc4F)nc3c2)CC1	human GPR119 (Homo sapiens, UniProt Q8TDV5)	activation at 10 µM	46%
CC(C)OC(=O)N1CCC(c2ccc3nc(-c4ccc(S(C)(=O)=O)cc4F)oc3c2)CC1	human GPR119 (Homo sapiens, UniProt Q8TDV5)	activation at 10 µM	76.6%
CC(C)(C)OC(=O)N1CC=C(c2ccc3[nH]c(-c4ccc(S(C)(=O)=O)cc4F)nc3c2)CC1	human GPR119 (Homo sapiens, UniProt Q8TDV5)	activation at 10 µM	38.5%
CS(=O)(=O)c1ccc(-c2nc3cc(C4=CCN(S(=O)(=O)CCCO)CC4)ccc3o2)c(F)c1	human GPR119 (Homo sapiens, UniProt Q8TDV5)	activation at 10 µM	46.2%
CS(=O)(=O)c1ccc(-c2nc3cc(C4CCN(c5ncc(F)cn5)CC4)ccc3o2)c(F)c1	human GPR119 (Homo sapiens, UniProt Q8TDV5)	activation at 10 µM	43%
CC(C)(C)OC(=O)N1CCC(c2ccc3oc(-c4ccc(S(C)(=O)=O)cc4F)nc3c2)CC1	human GPR119 (Homo sapiens, UniProt Q8TDV5)	activation at 10 µM	72.8%
CC(C)(C)OC(=O)N1CC=C(c2ccc3nc(-c4ccc(S(C)(=O)=O)cc4F)sc3c2)CC1	human GPR119 (Homo sapiens, UniProt Q8TDV5)	activation at 10 µM	32.1%
CC(C)(C)OC(=O)N1CC=C(c2ccc3oc(-c4ccc(S(C)(=O)=O)cc4F)nc3c2)CC1	human GPR119 (Homo sapiens, UniProt Q8TDV5)	activation at 10 µM	63.8%
CC(C)(C)OC(=O)N1CCC(c2cnc3oc(-c4ccc(C(F)(F)F)cc4)nc3c2)CC1	human GPR119 (Homo sapiens, UniProt Q8TDV5)	activation at 10 µM	47.3%

---

Known melting point of a selection of molecules

entry.smiles	melting point
COCCN1CCC(c2nc3cc(-c4ccc(-n5cnnn5)cc4F)ccc3o2)CC1	148 to 152 °C
CS(=O)(=O)c1ccc(-c2nc3cc(C4CCN(c5ncc(F)cn5)CC4)ccc3o2)c(F)c1	220 to 222 °C
CC(C)OC(=O)N1CCC(c2nc3cc(-c4ccc(C(N)=O)cc4F)ccc3o2)CC1	194 to 197 °C

---

# target.entity: human GPR119 (Homo sapiens)
# Construct: expressed in transfected cells; host or cells: HEK293 (transient transfection, Lipofectamine 2000)
# protocol: In vitro cyclic AMP assay (Cisbio HTRF) in HEK293 cells transfected with human GPR119
# Type: cell-based
# recorded.conditions: 1 h, % Induction @ 10 μM, cAMP, Table I
# activation at 10 µM >= 70% gives Yes, anything below gives No

entry.smiles	class.assignment
CC(C)OC(=O)N1CCC(c2nc3cc(-c4ccc(C(F)F)cc4)ccc3o2)CC1	Yes
CC(C)(C)OC(=O)N1CCC(c2nc3cc(-c4ccc(S(C)(=O)=O)cc4F)ccc3o2)CC1	Yes
CNC(=O)c1ccc(-c2ccc3oc(C4CCN(C(=O)OC(C)C)CC4)nc3c2)cc1F	Yes
CC(C)C(=O)N1CCC(c2nc3cc(-c4ccc(-n5cnnn5)cc4F)ccc3o2)CC1	No
CNC(=O)c1ccc(-c2ccc3oc(C4CCN(C(=O)OC(C)C)CC4)nc3c2)cn1	No
CC(C)CC(=O)N1CCC(c2nc3cc(-c4ccc(C(N)=O)c(F)c4)ccc3o2)CC1	No
CCc1cnc(N2CCC(c3nc4cc(-c5ccc(-n6cnnn6)cc5F)ccc4o3)CC2)nc1	No
CC(C)(C)OC(=O)N1CCC(c2nc3cc(-c4ccc(C#N)c(F)c4)ccc3o2)CC1	No
CC(C)(C)OC(=O)N1CCC(c2nc3cc(-c4ccc(S(C)(=O)=O)cc4F)cc(F)c3o2)CC1	No

---

Known EC50 of a selection of compounds
# target.entity: human GPR119 (Homo sapiens)
# Construct: expressed in transfected cells; host or cells: HEK293 (transient transfection, Lipofectamine 2000)
# Sequence (Q8TDV5 1-335): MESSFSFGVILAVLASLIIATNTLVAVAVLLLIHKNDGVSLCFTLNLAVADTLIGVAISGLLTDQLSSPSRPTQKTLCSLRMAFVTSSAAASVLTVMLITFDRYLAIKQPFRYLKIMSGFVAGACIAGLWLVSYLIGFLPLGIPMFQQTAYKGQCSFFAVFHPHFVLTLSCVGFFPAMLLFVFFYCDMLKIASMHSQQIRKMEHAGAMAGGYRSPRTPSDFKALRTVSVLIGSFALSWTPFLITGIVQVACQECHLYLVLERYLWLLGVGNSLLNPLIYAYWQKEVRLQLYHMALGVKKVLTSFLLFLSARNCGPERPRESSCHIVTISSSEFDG
# protocol: In vitro cyclic AMP assay (Cisbio HTRF) in HEK293 cells transfected with human GPR119
# Assay type: cell-based
# recorded.conditions: cAMP, Table I, Emax varies between 65 to 80%
endpoint: EC50

compound	endpoint	result
CC(C)OC(=O)N1CCC(c2nc3cc(-c4ccc(C(N)=O)c(Cl)c4)ccc3o2)CC1 [EXAMPLE-30]	EC50	500 to 1000 nM
CC(C)(C)OC(=O)N1CCC(c2nc3cc(-c4ccc(S(C)(=O)=O)c(F)c4)ccc3o2)CC1 [EXAMPLE-10]	EC50	500 to 1000 nM
CC(C)(C)OC(=O)N1CC=C(c2cc3cc(-c4ccc(C(N)=O)c(F)c4)ccc3o2)CC1 [EXAMPLE-52]	EC50	100 to 500 nM
CC(C)OC(=O)N1CCC(c2nc3cc(-c4ccc(-n5cnnn5)cc4F)ccc3o2)CC1 [EXAMPLE-14]	EC50	25 to 50 nM
CC(C)(C)OC(=O)N1CCC(c2nc3ccc(-c4ccc(S(C)(=O)=O)cc4F)cc3o2)CC1 [EXAMPLE-6]	EC50	25 to 50 nM
CC(C)(C)OC(=O)N1CCC(c2nc3cc(-c4ccc(S(C)(=O)=O)cc4F)cc(F)c3o2)CC1 [EXAMPLE-8]	EC50	25 to 50 nM
CC(C)(C)OC(=O)N1CCC(c2nc3cc(-c4ccc(C(F)(F)F)cc4)ccc3o2)CC1 [EXAMPLE-13]	EC50	100 to 500 nM
